- measured on: HLA-B*07:02
- assay method text: IEDB peptide-MHC binding, purified MHC/competitive/radioactivity; bounds were set here for any values at or beyond the usual limits of such assays
- condition: source organism: Plasmodium falciparum
metric name: IC50 (nM)
Numbers only, in nM.

Which IC50 value belongs to `TPYAGEPAPF` ? 31

* * *

Kindly state pIC50 for each of the entries shown.
- measured on: HLA-B*07:02
- assay method text: IEDB peptide-MHC binding, purified MHC/competitive/radioactivity; bounds were set here for any values at or beyond the usual limits of such assays
- condition: source organism: Human immunodeficiency virus 1
Answers are plain numbers, as −log10 of the molar value.

INSERT INTO assay_data (biopolymer_sequence, metric_name, reported_measurement) VALUES
  ('HPVHAGPIA', 'pIC50', 7.24);

# per-item lookup of pIC50; items listed below
1. CPKVSFEPI
2. YPLASLRSLF
3. IPIHYCAPA

6.90
6.39
6.35
